condition.description: rat, in vivo, sc, 50 mg/kg
readout: MCV

substance	assay.result
ISIS 417003: MOE gapmer, nucleobases 1275 to 1318 of SEQ ID NO: 1 (Table 8) (antisense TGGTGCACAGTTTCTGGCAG; MOE gapmer, wing and gap sizes not given here)	6
ISIS 416999: MOE gapmer, nucleobases 1275 to 1318 of SEQ ID NO: 1 (Table 8) (antisense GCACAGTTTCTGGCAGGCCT; MOE gapmer, wing and gap sizes not given here)	2

###

Examples of substances with documented Neutrophil follow.
condition.description: rat, in vivo, sc, 50 mg/kg

substance	Neutrophil
ISIS 416863: MOE gapmer, nucleobases 1275 to 1318 of SEQ ID NO: 1 (Table 8) (antisense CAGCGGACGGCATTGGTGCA; MOE gapmer, wing and gap sizes not given here)	1720
ISIS 416851: MOE gapmer, nucleobases 1275 to 1318 of SEQ ID NO: 1 (Table 8) (antisense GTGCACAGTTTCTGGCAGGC; MOE gapmer, wing and gap sizes not given here)	1001
ISIS 416860: MOE gapmer, nucleobases 1275 to 1318 of SEQ ID NO: 1 (Table 8) (antisense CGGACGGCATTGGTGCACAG; MOE gapmer, wing and gap sizes not given here)	1841
ISIS 416852: MOE gapmer, nucleobases 1275 to 1318 of SEQ ID NO: 1 (Table 8) (antisense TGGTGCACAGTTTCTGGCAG; MOE gapmer, wing and gap sizes not given here)	836
ISIS 416848: MOE gapmer, nucleobases 1275 to 1318 of SEQ ID NO: 1 (Table 8) (antisense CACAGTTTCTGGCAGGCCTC; MOE gapmer, wing and gap sizes not given here)	1874
ISIS 416859: MOE gapmer, nucleobases 1275 to 1318 of SEQ ID NO: 1 (Table 8) (antisense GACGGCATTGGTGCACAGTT; MOE gapmer, wing and gap sizes not given here)	1414
